# TGT: UniProt Q08345
# Sequence (Q08345 19-913): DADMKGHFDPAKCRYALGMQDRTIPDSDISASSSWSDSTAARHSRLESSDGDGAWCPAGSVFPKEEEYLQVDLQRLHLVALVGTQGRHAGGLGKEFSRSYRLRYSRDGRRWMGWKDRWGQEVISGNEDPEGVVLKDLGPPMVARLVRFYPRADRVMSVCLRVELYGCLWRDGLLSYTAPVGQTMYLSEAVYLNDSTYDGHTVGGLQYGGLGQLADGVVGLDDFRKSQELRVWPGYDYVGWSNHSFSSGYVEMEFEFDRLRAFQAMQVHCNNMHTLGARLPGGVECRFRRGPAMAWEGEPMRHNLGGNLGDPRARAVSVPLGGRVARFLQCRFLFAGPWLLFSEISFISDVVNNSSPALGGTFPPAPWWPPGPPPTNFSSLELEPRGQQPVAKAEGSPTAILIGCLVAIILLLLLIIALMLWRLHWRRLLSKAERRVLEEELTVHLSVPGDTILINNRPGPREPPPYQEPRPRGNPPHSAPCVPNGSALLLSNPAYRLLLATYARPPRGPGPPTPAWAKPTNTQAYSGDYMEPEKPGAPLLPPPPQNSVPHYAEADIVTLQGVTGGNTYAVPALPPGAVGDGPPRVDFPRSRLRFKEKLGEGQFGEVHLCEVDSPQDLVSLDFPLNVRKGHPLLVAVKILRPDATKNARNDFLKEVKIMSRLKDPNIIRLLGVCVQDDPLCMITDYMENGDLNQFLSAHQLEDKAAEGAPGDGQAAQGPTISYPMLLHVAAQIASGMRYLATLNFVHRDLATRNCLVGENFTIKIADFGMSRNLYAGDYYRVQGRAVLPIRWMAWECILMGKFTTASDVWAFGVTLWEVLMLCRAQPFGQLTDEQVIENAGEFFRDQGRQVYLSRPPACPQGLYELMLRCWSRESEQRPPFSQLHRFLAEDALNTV
pKi: −log10 of the molar value. Structures can show the parent of a compound that is named as a salt.
Form field: pKi (one value per entry).
QUANTITY MEASURED: pKi

INSERT INTO assay_data (compound, result) VALUES
  ('Cc1ccc(NC(=O)c2cc(CN3CCN(C)CC3)cc(C(F)(F)F)c2)cc1CNc1cncnc1', '> 7.52'),
  ('CC(C)c1ccc(C(=O)Nc2cc(CN3CCN(C)CC3)cc(C(F)(F)F)c2)cc1CNc1cnc2ccnn2c1', '6.52 to 7.52'),
  ('Cc1cn(-c2cc(NC(=O)c3ccc(C)c(CNC(=O)c4cnc5ccccn45)c3)cc(C(F)(F)F)c2)cn1', '> 7.52'),
  ('CCCc1ccc(C(=O)Nc2cc(CN3CCN(C)CC3)cc(C(F)(F)F)c2)cc1CNc1cnc2ccnn2c1', '6.52 to 7.52'),
  ('CNC(=O)c1cc(NCc2cc(C(=O)Nc3cc(CN4CCN(C)CC4)cc(C(F)(F)F)c3)ccc2C)ccn1', '> 7.52'),
  ('CCCc1ccc(C(=O)Nc2cc(CN3CCN(C)CC3)cc(C(F)(F)F)c2)cc1CNC(=O)c1cnc2ccccn12 [Example 28, formate salt]', '6.00 to 6.52'),
  ('Cc1cn(-c2cc(NC(=O)c3ccc(C)c(CNc4ccc5[nH]ncc5c4)c3)cc(C(F)(F)F)c2)cn1', '6.52 to 7.52'),
  ('Cc1ccc(C(=O)Nc2cc(CN3CCN(C)CC3)cc(C(F)(F)F)c2)cc1CNC(=O)c1cnc2ccccn12', '> 7.52'),
  ('CC(C)c1ccc(C(=O)Nc2cc(CN3CCN(C)CC3)cc(C(F)(F)F)c2)cc1CNc1cncnc1', '> 7.52'),
  ('Cc1ccc(NC(=O)c2cc(CN3CCN(C)CC3)cc(C(F)(F)F)c2)cc1CNCc1cncnc1', '6.00 to 6.52'),
  ('CNC(=O)c1cc(CNCc2cc(NC(=O)c3cc(CN4CCN(C)CC4)cc(C(F)(F)F)c3)ccc2C)ccn1', '6.52 to 7.52'),
  ('CNC(=O)c1cc(NCc2cc(NC(=O)c3cc(CN4CCN(C)CC4)cc(C(F)(F)F)c3)ccc2C)ccn1', '> 7.52'),
  ('Cc1ccc(C(=O)Nc2cc(CN3CCN(C)CC3)cc(C(F)(F)F)c2)cc1CNc1cnc2ccnn2c1', '> 7.52'),
  ('Cc1ccc(NC(=O)c2cc(CN3CCN(C)CC3)cc(C(F)(F)F)c2)cc1CNCc1cnc2ccccn12', '> 7.52'),
  ('COc1ccc(NC(=O)c2ccc(C)c(CNc3cncnc3)c2)cc1C(F)(F)F', '> 7.52'),
  ('Cc1cn(-c2cc(NC(=O)c3ccc(C)c(CNc4cnc5[nH]ccc5c4)c3)cc(C(F)(F)F)c2)cn1', '> 7.52'),
  ('Cc1cn(-c2cc(NC(=O)c3ccc(C)c(CNC(=O)c4cnc5[nH]ccc5c4)c3)cc(C(F)(F)F)c2)cn1', '> 7.52'),
  ('O=C(Nc1cccc(C(F)(F)F)c1)c1ccc(F)c(CNc2cnc3[nH]ccc3c2)c1', '> 7.52'),
  ('CC(C)c1ccc(C(=O)Nc2cc(CN3CCN(C)CC3)cc(C(F)(F)F)c2)cc1CNC(=O)c1cnc2[nH]ccc2c1', '6.00 to 6.52'),
  ('O=C(Nc1cccc(OC(F)(F)F)c1)c1ccc(F)c(CNc2cnc3[nH]ccc3c2)c1', '> 7.52'),
  ('CCCc1ccc(C(=O)Nc2cc(CN3CCN(C)CC3)cc(C(F)(F)F)c2)cc1CNc1cncnc1', '> 7.52'),
  ('Cc1ccc(C(=O)Nc2cccc(OC(F)(F)F)c2)cc1CNc1cncnc1', '> 7.52');
